Molecular target: UniProt Q9UBN7
Sequence (Q9UBN7 whole entry): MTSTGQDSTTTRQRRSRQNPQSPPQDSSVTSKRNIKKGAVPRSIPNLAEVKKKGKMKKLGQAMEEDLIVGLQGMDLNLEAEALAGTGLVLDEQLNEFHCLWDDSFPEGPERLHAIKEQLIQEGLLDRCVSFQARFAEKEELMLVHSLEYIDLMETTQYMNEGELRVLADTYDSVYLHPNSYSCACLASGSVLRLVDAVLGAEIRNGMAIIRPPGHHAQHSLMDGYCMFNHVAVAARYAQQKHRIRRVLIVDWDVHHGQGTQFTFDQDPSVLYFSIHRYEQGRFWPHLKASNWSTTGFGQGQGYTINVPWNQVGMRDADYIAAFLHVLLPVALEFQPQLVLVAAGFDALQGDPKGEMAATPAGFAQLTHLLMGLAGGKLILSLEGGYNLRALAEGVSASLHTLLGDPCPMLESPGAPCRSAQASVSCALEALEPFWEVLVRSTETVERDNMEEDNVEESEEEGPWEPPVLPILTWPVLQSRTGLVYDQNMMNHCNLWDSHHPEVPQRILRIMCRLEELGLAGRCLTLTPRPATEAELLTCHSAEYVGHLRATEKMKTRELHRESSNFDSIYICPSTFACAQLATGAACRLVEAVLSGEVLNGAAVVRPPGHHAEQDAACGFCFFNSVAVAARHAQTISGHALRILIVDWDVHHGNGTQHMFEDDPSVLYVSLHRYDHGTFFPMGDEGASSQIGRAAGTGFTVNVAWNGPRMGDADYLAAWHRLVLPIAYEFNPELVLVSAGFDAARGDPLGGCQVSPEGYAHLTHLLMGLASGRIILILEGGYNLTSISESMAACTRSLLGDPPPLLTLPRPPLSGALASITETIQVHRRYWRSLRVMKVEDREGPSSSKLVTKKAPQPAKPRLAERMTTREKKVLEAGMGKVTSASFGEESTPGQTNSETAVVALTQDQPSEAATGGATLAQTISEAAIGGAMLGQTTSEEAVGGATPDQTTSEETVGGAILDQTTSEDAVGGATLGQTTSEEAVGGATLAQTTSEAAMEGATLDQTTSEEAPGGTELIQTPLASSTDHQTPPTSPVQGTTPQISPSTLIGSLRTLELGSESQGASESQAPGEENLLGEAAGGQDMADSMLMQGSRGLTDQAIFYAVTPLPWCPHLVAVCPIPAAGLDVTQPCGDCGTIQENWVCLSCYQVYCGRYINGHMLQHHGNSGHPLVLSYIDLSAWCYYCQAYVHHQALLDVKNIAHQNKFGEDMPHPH
readout type: IC50 (nM)
I only need the number, in nM, no unit after it.

| query smiles | endpoint unit | IC50 |
| --- | --- | --- |
| O=C(/C=C/c1ccc(CN2c3ccccc3Sc3ccccc32)cc1)NO | nM | 463 |
| Cc1ccc2c(c1)c1c(n2Cc2ccc(C(=O)NO)cn2)CCN(C)C1 | nM | 83 |

Which measured IC50 belongs to O=C(CCc1ccc(CN2c3ccccc3Sc3ccccc32)cc1)NO , tested on UniProt Q9UBN7?
343

Which measured IC50 belongs to C[C@]12CC3CC(NCc4ccc(C(=O)NO)cn4)(C1)C[C@@](C)(C3)C2 , tested on UniProt Q9UBN7?
537

Which measured IC50 belongs to Cl.O=C(NO)c1ccc(CN2c3ccccc3Sc3ccccc32)nc1 , tested on UniProt Q9UBN7?
2.54

---

molecular target: Histone deacetylase 1 (Homo sapiens)
Sequence (Q13547 whole entry): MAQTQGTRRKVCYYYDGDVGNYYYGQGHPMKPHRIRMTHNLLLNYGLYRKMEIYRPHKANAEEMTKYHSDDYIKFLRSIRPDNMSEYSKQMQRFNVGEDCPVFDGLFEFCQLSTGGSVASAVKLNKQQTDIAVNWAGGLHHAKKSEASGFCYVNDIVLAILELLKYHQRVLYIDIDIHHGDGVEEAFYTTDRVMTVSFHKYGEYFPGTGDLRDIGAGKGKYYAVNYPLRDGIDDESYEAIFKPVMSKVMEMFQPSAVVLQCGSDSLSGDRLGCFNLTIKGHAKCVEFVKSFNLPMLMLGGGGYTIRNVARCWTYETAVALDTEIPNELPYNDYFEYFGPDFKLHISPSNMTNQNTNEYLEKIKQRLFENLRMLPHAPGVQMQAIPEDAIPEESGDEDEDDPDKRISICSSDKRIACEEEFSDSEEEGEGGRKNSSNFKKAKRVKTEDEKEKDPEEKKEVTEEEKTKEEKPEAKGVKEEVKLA
readout type: IC50 (µM)
I only need the number, in µM, no unit after it.

Which measured IC50 belongs to Cl.O=C(NO)c1ccc(CN2c3ccccc3Sc3ccccc32)nc1 , tested on Histone deacetylase 1 (Homo sapiens)?
0.743

---

molecular target: Histone deacetylase 2 (Homo sapiens, UniProt Q92769)
Sequence (Q92769 whole entry): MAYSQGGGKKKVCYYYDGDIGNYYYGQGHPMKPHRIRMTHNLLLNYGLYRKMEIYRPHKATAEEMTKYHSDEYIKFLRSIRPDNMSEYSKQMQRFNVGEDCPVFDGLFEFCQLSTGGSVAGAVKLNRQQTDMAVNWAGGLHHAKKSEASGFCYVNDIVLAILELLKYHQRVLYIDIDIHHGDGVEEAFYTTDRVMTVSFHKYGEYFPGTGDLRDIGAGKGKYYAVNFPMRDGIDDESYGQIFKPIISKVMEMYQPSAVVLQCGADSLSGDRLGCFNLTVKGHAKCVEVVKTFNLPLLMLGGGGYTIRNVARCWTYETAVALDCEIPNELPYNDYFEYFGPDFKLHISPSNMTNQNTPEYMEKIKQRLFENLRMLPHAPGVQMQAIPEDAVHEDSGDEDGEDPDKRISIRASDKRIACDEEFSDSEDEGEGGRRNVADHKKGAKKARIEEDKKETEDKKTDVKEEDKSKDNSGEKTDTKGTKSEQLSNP
readout type: IC50 (nM)
I only need the number, in nM, no unit after it.

Which measured IC50 belongs to Cl.O=C(NO)c1ccc(CN2c3ccccc3Sc3ccccc32)nc1 , tested on Histone deacetylase 2 (Homo sapiens, UniProt Q92769)?
1960

---

target: Histone deacetylase 4 (Homo sapiens)
Sequence (P56524 whole entry): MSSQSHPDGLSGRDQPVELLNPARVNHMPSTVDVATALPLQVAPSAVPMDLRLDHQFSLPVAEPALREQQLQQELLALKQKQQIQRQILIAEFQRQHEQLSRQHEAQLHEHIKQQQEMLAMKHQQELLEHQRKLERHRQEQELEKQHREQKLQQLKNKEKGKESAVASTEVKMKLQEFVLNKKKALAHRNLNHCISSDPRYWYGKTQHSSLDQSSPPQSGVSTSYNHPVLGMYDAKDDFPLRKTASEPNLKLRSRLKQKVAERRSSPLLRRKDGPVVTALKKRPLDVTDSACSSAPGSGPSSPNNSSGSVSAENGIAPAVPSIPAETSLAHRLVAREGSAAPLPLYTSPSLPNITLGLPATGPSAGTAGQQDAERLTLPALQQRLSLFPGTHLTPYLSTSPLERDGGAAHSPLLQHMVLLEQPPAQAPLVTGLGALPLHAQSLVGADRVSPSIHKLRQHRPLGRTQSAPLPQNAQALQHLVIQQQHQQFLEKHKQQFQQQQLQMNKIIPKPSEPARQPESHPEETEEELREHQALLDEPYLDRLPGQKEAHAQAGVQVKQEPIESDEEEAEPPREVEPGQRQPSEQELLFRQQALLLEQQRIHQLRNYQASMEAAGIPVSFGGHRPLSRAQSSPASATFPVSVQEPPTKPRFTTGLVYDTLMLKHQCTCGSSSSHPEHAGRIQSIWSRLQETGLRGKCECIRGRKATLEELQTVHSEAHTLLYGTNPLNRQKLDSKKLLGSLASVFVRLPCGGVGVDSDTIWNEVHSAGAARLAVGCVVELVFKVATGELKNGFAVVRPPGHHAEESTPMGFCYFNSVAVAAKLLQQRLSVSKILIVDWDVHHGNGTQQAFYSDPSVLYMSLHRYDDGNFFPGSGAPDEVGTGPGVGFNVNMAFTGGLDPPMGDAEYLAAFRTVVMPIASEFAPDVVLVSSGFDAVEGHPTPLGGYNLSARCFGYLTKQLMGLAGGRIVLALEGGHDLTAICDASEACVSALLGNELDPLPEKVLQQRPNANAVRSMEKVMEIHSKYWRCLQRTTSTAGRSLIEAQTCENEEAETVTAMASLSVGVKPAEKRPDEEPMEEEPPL
readout type: IC50
Number first, unit second: that is the form wanted.

Requested read-out: IC50. Entry: Cl.O=C(NO)c1ccc(CN2c3ccccc3Sc3ccccc32)nc1
5.63 µM

FYI, the data here is from ChEMBL document CHEMBL4842377.
